# procedure.summary: Stability in phosphate buffered saline at pH 7.4
# Type: physicochemical
# measurement.setup: PBS pH 7.4, 37 °C, 24 h, 1 μM compound
Collected pH 7.4 (%), percent remaining after 24 h incubation values appear next to each entry.
quantity.measured: pH 7.4 (%), percent remaining after 24 h incubation

O=C(NCCCCCCCCc1ccccc1)Oc1cccc(-c2ccccc2)c1 [Compound 1c]	65.9
O=C(NCCCCc1ccccc1)Oc1cccc(-c2ccccc2)c1 [Compound 1b]	35.9
NC(=O)c1cccc(-c2cccc(OC(=O)NC3CCCCC3)c2)c1 [Compound 1d]	40.2
O=C(NC1CCCCC1)Oc1cccc(-c2ccccc2)c1 [Compound 1a]	41.1
Nc1ccc(OC(=O)NC2CCCCC2)cc1-c1ccccc1 [Compound 1h]	89.0
NC(=O)c1cccc(-c2cccc(OC(=O)NCCCCCCCCc3ccccc3)c2)c1 [Compound 1f]	42.8

----------
# procedure.summary: Stability in rat plasma
# Format: in vitro ADME
# measurement.setup: rat, pooled rat plasma diluted to 80% (vol/vol) with PBS, pH 7.4
quantity.measured: half-life at 1 μM (min)

NC(=O)c1cccc(-c2cccc(OC(=O)NCCCCCCCCc3ccccc3)c2)c1	4
NC(=O)c1cccc(-c2cccc(OC(=O)NC3CCCCC3)c2)c1	33

----------
Collected pIC50 values appear next to each entry.
# tested.system: FAAH (Rattus norvegicus)
# Sequence (P97612 1-579): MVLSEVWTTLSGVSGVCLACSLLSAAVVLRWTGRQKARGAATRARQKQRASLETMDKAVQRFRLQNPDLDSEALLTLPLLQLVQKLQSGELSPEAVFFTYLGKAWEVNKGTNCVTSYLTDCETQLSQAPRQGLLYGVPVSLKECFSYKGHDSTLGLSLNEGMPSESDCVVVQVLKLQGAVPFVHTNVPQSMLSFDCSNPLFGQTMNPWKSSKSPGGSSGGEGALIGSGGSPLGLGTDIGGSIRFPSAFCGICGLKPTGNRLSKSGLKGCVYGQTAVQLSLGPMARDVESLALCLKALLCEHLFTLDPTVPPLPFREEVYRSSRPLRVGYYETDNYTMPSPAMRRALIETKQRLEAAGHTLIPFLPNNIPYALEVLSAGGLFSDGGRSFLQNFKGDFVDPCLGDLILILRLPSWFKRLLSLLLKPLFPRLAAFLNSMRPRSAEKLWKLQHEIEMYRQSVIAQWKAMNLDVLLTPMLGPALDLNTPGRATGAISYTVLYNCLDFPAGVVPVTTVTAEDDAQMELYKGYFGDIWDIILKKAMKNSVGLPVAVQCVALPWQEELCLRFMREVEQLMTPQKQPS
# procedure.summary: FAAH activity in vitro, rat brain membranes, [3H]-anandamide hydrolysis
# Type: biochemical
pIC50: −log10 of the molar value.
quantity.measured: pIC50

NC(=O)c1cccc(-c2cccc(OC(=O)NCCCCCCCCc3ccccc3)c2)c1	9.59
Nc1ccc(OC(=O)NC2CCCCC2)cc1-c1ccccc1	7.57
